Source of measurements: patent US20240331158A1

tested on: TU-BcX-4IC tumoroids; experiment: Secondary follow-up 3D assay, 7-point concentration curves, tumoroid disintegration measurement; format: cell-based, human; settings: Homo sapiens, TU-BcX-4IC, 120 h, 3D assay, 7-point concentration curves, 5 days, nuclear count in projection images; read-out: EC50
Counter-ions that a name gives are not always drawn.
Recorded Endpoint: EC50 (nM)

CC(=O)Nc1cccc(-n2c(=O)n(C3CC3)c(=O)c3c(Nc4ccc(I)cc4F)n(C)c(=O)c(C)c32)c1 [Trametinib] ... 70

[I] CCN(CC)CCNC(=O)c1c(C)[nH]c(/C=C2\C(=O)Nc3ccc(F)cc32)c1C [Sunitinib]
[II] COc1c(OCCCN2CCOCC2)ccc2c1N=C(NC(=O)c1cnc(N)nc1)N1CCN=C21 [Copanlisib tris-HCl]
[III] Cc1[nH]c2ccccc2c1CCNCc1ccc(/C=C/C(=O)NO)cc1 [Panobinostat]
[IV] CC(C)C[C@H](NC(=O)[C@H](Cc1ccccc1)NC(=O)c1cnccn1)B(O)O [Bortezomib]
[V] CC(=O)O[C@H]1C(=O)[C@@]2(C)[C@H]([C@H](OC(=O)c3ccccc3)[C@]3(O)C[C@H](OC(=O)[C@H](O)[C@@H](NC(=O)c4ccccc4)c4ccccc4)C(C)=C1C3(C)C)[C@]1(OC(C)=O)CO[C@@H]1C[C@@H]2O [Paclitaxel]
Order the records so the highest EC50 appears first and the lowest last. # answer = labels listed in requested order
V, I, III, II, IV

====

system: TU-BcX-4IC 3D cultures; experiment: CellTiter-Glo 3D ATP assay, 3D culture; details: Homo sapiens, TU-BcX-4IC, 120 h, read-out: EC50, ATP 3D
Where a name gives a salt, the structure may show the parent alone. *1 amine or outer side, *2 acyl side, *3 side chain or, on linkers, in order; H or OH if unused. Where a SMILES comes first, the peptide text is derived from it. Bridges are numbered along the chain shown (N, C = ends). Roman numbers before positions name the chains, in order. [ ]: non-standard residue; d: D form. Actinocin(9to1) = Cc1c2oc3c(C)ccc(C(=O)[*:1])c3nc-2c(C(=O)[*:2])c(N)c1=O; NMeV = CN[C@H](C(=O)O)C(C)C; Sar = CNCC(=O)O
pEC50 values by entry
Lab note — pEC50 values are minus log10 of concentrations in M.

CC(=O)[C@]1(O)Cc2c(O)c3c(c(O)c2[C@@H](O[C@H]2C[C@H](N)[C@H](O)[C@H](C)O2)C1)C(=O)c1ccccc1C3=O [Idarubicin hydrochloride] ... 6.84
CC(C)C[C@H](NC(=O)[C@H](Cc1ccccc1)NC(=O)c1cnccn1)B(O)O ... 7.82
CC(C)C[C@H](NC(=O)[C@H](CCc1ccccc1)NC(=O)CN1CCOCC1)C(=O)N[C@@H](Cc1ccccc1)C(=O)N[C@@H](CC(C)C)C(=O)[C@@]1(C)CO1 ... 5.24

So what pEC50 did Cc1[nH]c2ccccc2c1CCNCc1ccc(/C=C/C(=O)NO)cc1 get with TU-BcX-4IC 3D cultures?
7.08

Can you look up pEC50 on TU-BcX-4IC 3D cultures for CC(=O)Nc1cccc(-n2c(=O)n(C3CC3)c(=O)c3c(Nc4ccc(I)cc4F)n(C)c(=O)c(C)c32)c1 ?
5.58

Lab request: please report pEC50 under test system TU-BcX-4IC 3D cultures for C=CC(=O)N1CCC[C@@H](n2nc(-c3ccc(Oc4ccccc4)cc3)c3c(N)ncnc32)C1
4.80

Form field: pEC50 recorded for Cc1c2oc3c(C)ccc(C(=O)N[C@@H]4C(=O)N[C@H](C(C)C)C(=O)N5CCC[C@H]5C(=O)N(C)CC(=O)N(C)[C@@H](C(C)C)C(=O)O[C@@H]4C)c3nc-2c(C(=O)N[C@@H]2C(=O)N[C@H](C(C)C)C(=O)N3CCC[C@H]3C(=O)N(C)CC(=O)N(C)[C@@H](C(C)C)C(=O)O[C@@H]2C)c(N)c1=O [Dactinomycin] (I: T[dV]P[Sar][NMeV] / II: T[dV]P[Sar][NMeV]; ester I:1-I:C, II:1-II:C; linker I:N-II:N via Actinocin(9to1)) with TU-BcX-4IC 3D cultures (enter value)
8.30

====

test system: TU-BcX-4IC tumoroids; experiment: Library screening of NCI approved anti-cancer drugs: tumoroid integrity/disintegration by nuclear count in projection images (viability/spheroid disintegration assay); conditions: also hit in viability/spheroid disintegration assay; 10 μM
Counter-ions that a name gives are not always drawn.
Recorded Endpoint: Viability HIT?

Consider the reported Viability HIT? for these compounds:
CN1CCN(c2ccc(C(=O)Nc3n[nH]c4ccc(Cc5cc(F)cc(F)c5)cc34)c(NC3CCOCC3)c2)CC1 ... yes
O=C(/C=C/c1cccc(S(=O)(=O)Nc2ccccc2)c1)NO ... yes
Cc1nc(NC(=O)N2CCC[C@H]2C(N)=O)sc1-c1ccnc(C(C)(C)C(F)(F)F)c1 ... yes
CC(C)C[C@H](NC(=O)[C@H](CCc1ccccc1)NC(=O)CN1CCOCC1)C(=O)N[C@@H](Cc1ccccc1)C(=O)N[C@@H](CC(C)C)C(=O)[C@@]1(C)CO1 ... no
Cn1cc(-c2cc3c(N4CCN(c5ncc([C@@](C)(N)c6ccc(F)cc6)cn5)CC4)ncnn3c2)cn1 ... no

State its Viability HIT? on TU-BcX-4IC tumoroids: CCCCC(=O)OCC(=O)[C@]1(O)Cc2c(O)c3c(c(O)c2[C@@H](O[C@H]2C[C@H](NC(=O)C(F)(F)F)[C@H](O)[C@H](C)O2)C1)C(=O)c1c(OC)cccc1C3=O
yes

Identify the measured Viability HIT? of O=C1c2c(O)ccc(O)c2C(=O)c2c(NCCNCCO)ccc(NCCNCCO)c21 for TU-BcX-4IC tumoroids.
yes

Kindly state the measured Viability HIT? obtained for COc1c(OCCCN2CCOCC2)ccc2c1N=C(NC(=O)c1cnc(N)nc1)N1CCN=C21 [Copanlisib tris-HCl] with TU-BcX-4IC tumoroids.
yes

Quick check: Viability HIT? on TU-BcX-4IC tumoroids, item O=C(/C=C\n1cnc(-c2cc(C(F)(F)F)cc(C(F)(F)F)c2)n1)NNc1cnccn1 [Selinexor] ?
no

// fetch TU-BcX-4IC tumoroids Viability HIT? for O=C(Nc1cnn2ccc(N3CCC[C@@H]3c3cc(F)ccc3F)nc12)N1CC[C@H](O)C1
no

Request - read-out Viability HIT? | tested on TU-BcX-4IC tumoroids | compound O=C(CCCCCCC(=O)Nc1ccccc1)NO
no

====

system: TU-BcX-4IC tumoroids; assay: Library screening of NCI approved anti-cancer drugs: tumoroid integrity/disintegration by nuclear count in projection images (viability/spheroid disintegration assay); conditions: also hit in viability/spheroid disintegration assay; 10 μM
Recorded Endpoint: Viability HIT?

COC(=O)N[C@@H](C)CNc1nccc(-c2cn(C(C)C)nc2-c2cc(Cl)cc(NS(C)(=O)=O)c2F)n1 [Encorafenib] ... no
C=CC(=O)Nc1cc(Nc2nccc(-c3cn(C)c4ccccc34)n2)c(OC)cc1N(C)CCN(C)C [Osimertinib] ... yes
CO[C@H]1C[C@@H]2CC[C@@H](C)[C@@](O)(O2)C(=O)C(=O)N2CCCC[C@H]2C(=O)O[C@H]([C@H](C)C[C@@H]2CC[C@@H](OC(=O)C(C)(CO)CO)[C@H](OC)C2)CC(=O)[C@H](C)/C=C(\C)[C@@H](O)[C@@H](OC)C(=O)[C@H](C)C[C@H](C)/C=C/C=C/C=C/1C [Temsirolimus] ... no
